- tgt: glycine site of the NMDA receptor (Rattus norvegicus)
- test_description: binding affinity for the glycine site of the NMDA receptor (Jones et al.)
recorded_metric: IC50

Q: Record `Cc1c([N+](=O)[O-])cc2[nH]c(=O)c(=O)[nH]c2c1CN(C)S(=O)(=O)c1c(C(C)C)cc(C(C)C)cc1C(C)C` : what is its IC50 with glycine site of the NMDA receptor (Rattus norvegicus)?
Ans: > 1000 nM

Q: Record `Cc1ccc(S(=O)(=O)N(C)Cc2c(C)c([N+](=O)[O-])cc3[nH]c(=O)c(=O)[nH]c23)cc1` : what is its IC50 with glycine site of the NMDA receptor (Rattus norvegicus)?
Ans: > 1000 nM

Q: Record `Cc1c([N+](=O)[O-])cc2[nH]c(=O)c(=O)[nH]c2c1CN(C)S(=O)(=O)c1ccc2ccccc2c1` : what is its IC50 with glycine site of the NMDA receptor (Rattus norvegicus)?
Ans: > 1000 nM

Q: Record `Cc1c([N+](=O)[O-])cc2[nH]c(=O)c(=O)[nH]c2c1CN(C)S(C)(=O)=O` : what is its IC50 with glycine site of the NMDA receptor (Rattus norvegicus)?
Ans: 100 nM
